System: rat hepatocytes
Assay: In vitro metabolic stability in rat hepatocytes
Format: in vitro ADME, Han Wistar rats
Conditions: 1 μM, maximal oral bioavailability calculated from half-life
Task for the reader: assign each of the following compounds its reported Rat hepatocyte Fmax.
Your answer should be a plain number; it is taken to be in %.

Ask | What reported Rat hepatocyte Fmax corresponds to CCc1cnc(-c2cc(OC[C@H]3CN(C)CCO3)cc(C(=O)N[C@H](C)c3ccc(C(F)(F)F)nn3)c2)s1 on rat hepatocytes?
Reply | 51

Ask | Cool, now Cc1cnc(-c2cc(OC(C)C(C)O)cc(C(=O)N[C@H](C)c3cnc(C(F)(F)F)nc3)c2)s1 (single isomer, unassigned) [Example 163]
Reply | 53

Ask | Cool, now Cc1cnc(-c2cc(OC(C)C(C)O)cc(C(=O)N[C@H](C)c3cnc(C(F)(F)F)nc3)c2)s1 (single isomer, unassigned) [Example 339]
Reply | 52
